The measured values listed here are drawn from ChEMBL document CHEMBL2069275.

- System: Anthrax toxin receptor 2 (Homo sapiens, UniProt P58335, R40C)
- Sequence (P58335 whole entry R40C): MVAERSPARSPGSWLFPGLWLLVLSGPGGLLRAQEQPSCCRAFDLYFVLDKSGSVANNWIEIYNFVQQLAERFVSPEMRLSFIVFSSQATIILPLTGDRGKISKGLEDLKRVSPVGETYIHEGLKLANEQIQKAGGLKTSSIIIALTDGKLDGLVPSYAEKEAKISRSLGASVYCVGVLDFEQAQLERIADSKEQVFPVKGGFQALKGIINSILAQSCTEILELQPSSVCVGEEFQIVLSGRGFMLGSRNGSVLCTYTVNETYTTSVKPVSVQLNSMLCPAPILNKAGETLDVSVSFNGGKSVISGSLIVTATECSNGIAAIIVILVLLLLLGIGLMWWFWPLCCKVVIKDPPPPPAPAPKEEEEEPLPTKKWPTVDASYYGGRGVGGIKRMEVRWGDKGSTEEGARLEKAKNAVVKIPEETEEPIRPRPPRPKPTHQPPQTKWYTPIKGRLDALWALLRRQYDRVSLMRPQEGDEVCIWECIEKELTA
- Procedure Summary: Inhibition of AF546-tagged CMG2 R40C mutant binding to AF488-tagged PA E733C mutant incubated for 1 to 3 hrs prior to AF488-tagged PA E733C addition measured after 3 to 4 hrs by FRET assay
Endpoint Label: IC50 (nM)
Answer in nM, number only, no unit symbol.

Qu. Recorded IC50 for "COc1cccc2c1c(O)cc1cc(C)c(=O)oc12" with Anthrax toxin receptor 2 (Homo sapiens, UniProt P58335, R40C), please?
Ans. 500
